tested on: 233499-124-R-J3-PDC spheroids with HUVEC/MSC, viability; test: Anticancer human tumor 233499-124-R-J3-PDC patient-derived colon adenocarcinoma cell line growth inhibition [PI3K]; settings: second compound 1 µM; first compound 1 µM; active means viability on the fitted dose curve at most 10% of control; inactive means the rest
Labels: true (1) = active, false (0) = inactive

compound: CCCS(=O)(=O)Nc1ccc(F)c(C(=O)c2c[nH]c3ncc(-c4ccc(Cl)cc4)cc23)c1F + COc1c(OCCCN2CCOCC2)ccc2c3n(c(=NC(=O)c4cnc(N)nc4)nc12)CCN3
category label: true (1)
//
compound: Cn1nccc1Nc1nccc(-c2ccn(C(CO)c3ccc(Cl)c(F)c3)c(=O)c2)n1 (stereo not drawn) + Cc1nc(NC(=O)N2CCCC2C(N)=O)sc1-c1ccnc(C(C)(C)C(F)(F)F)c1
category label: false (0)
//
compound: C[C@@H](NC(=O)c1ncnc(N)c1Cl)c1ncc(C(=O)Nc2cc(C(F)(F)F)c(Cl)cn2)s1 + Cc1nc(NC(=O)N2CCCC2C(N)=O)sc1-c1ccnc(C(C)(C)C(F)(F)F)c1
category label: false (0)
//
compound: CCN1CCN(Cc2ccc(Nc3ncc(F)c(-c4cc(F)c5nc(C)n(C(C)C)c5c4)n3)nc2)CC1 + CC(Nc1ccc2c(c1)OCCn1cc(N3C(=O)OCC3C(F)F)nc1-2)C(N)=O
category label: false (0)
//
compound: CC(C)NCC(C(=O)N1CCN(c2ncnc3c2C(C)CC3O)CC1)c1ccc(Cl)cc1 (stereo not drawn) + Cc1nc(NC(=O)N2CCCC2C(N)=O)sc1-c1ccnc(C(C)(C)C(F)(F)F)c1
category label: false (0)
//
compound: C#Cc1c(F)ccc2cc(O)cc(-c3ncc4c(N5CC6CCC(C5)N6)nc(OCC56CCCN5CC(F)C6)nc4c3F)c12 (stereo not drawn) + COc1c(OCCCN2CCOCC2)ccc2c3n(c(=NC(=O)c4cnc(N)nc4)nc12)CCN3
category label: true (1)
//
compound: Cn1nccc1Nc1nccc(-c2ccn(C(CO)c3ccc(Cl)c(F)c3)c(=O)c2)n1 (stereo not drawn) + COc1c(OCCCN2CCOCC2)ccc2c3n(c(=NC(=O)c4cnc(N)nc4)nc12)CCN3
category label: true (1)
//
compound: CC(C)NCC(C(=O)N1CCN(c2ncnc3c2C(C)CC3O)CC1)c1ccc(Cl)cc1 (stereo not drawn) + COc1c(OCCCN2CCOCC2)ccc2c3n(c(=NC(=O)c4cnc(N)nc4)nc12)CCN3
category label: false (0)
//
compound: C=CC(=O)N1CCN(c2nc(=O)n(-c3c(C)ccnc3C(C)C)c3nc(-c4c(O)cccc4F)c(F)cc23)C(C)C1 (stereo not drawn) + CC(Nc1ncnc2nc[nH]c12)c1cc2cccc(Cl)c2c(=O)n1-c1ccccc1
category label: false (0)
//
compound: CNC(=O)c1ccc(N2C(=S)N(c3ccc(C#N)c(C(F)(F)F)c3)C(=O)C2(C)C)cc1F + CC(Nc1ccc2c(c1)OCCn1cc(N3C(=O)OCC3C(F)F)nc1-2)C(N)=O
category label: false (0)
//
compound: CCCS(=O)(=O)Nc1ccc(F)c(C(=O)c2c[nH]c3ncc(-c4ccc(Cl)cc4)cc23)c1F + CC(Nc1ncnc2nc[nH]c12)c1cc2cccc(Cl)c2c(=O)n1-c1ccccc1
category label: false (0)
//
compound: CCN1CCN(Cc2ccc(Nc3ncc(F)c(-c4cc(F)c5nc(C)n(C(C)C)c5c4)n3)nc2)CC1 + COc1c(OCCCN2CCOCC2)ccc2c3n(c(=NC(=O)c4cnc(N)nc4)nc12)CCN3
category label: true (1)
//
compound: C#Cc1c(F)ccc2cc(O)cc(-c3ncc4c(N5CC6CCC(C5)N6)nc(OCC56CCCN5CC(F)C6)nc4c3F)c12 (stereo not drawn) + CC(Nc1ncnc2nc[nH]c12)c1cc2cccc(Cl)c2c(=O)n1-c1ccccc1
category label: false (0)
//
compound: Cn1ncc(Cl)c1-c1cc(C(=O)NC(CN)Cc2cccc(F)c2)sc1Cl (stereo not drawn) + Cc1nc(NC(=O)N2CCCC2C(N)=O)sc1-c1ccnc(C(C)(C)C(F)(F)F)c1
category label: false (0)
//
compound: CCCS(=O)(=O)Nc1ccc(F)c(C(=O)c2c[nH]c3ncc(-c4ccc(Cl)cc4)cc23)c1F + CC(Nc1ccc2c(c1)OCCn1cc(N3C(=O)OCC3C(F)F)nc1-2)C(N)=O
category label: false (0)
//
compound: Cn1nccc1Nc1nccc(-c2ccn(C(CO)c3ccc(Cl)c(F)c3)c(=O)c2)n1 (stereo not drawn) + CC(Nc1ccc2c(c1)OCCn1cc(N3C(=O)OCC3C(F)F)nc1-2)C(N)=O
category label: false (0)
//
compound: CC1(C)CCC(CN2CCN(c3ccc(C(=O)NS(=O)(=O)c4ccc(NCC5CCOCC5)c([N+](=O)[O-])c4)c(Oc4cnc5[nH]ccc5c4)c3)CC2)=C(c2ccc(Cl)cc2)C1 + Cc1nc(NC(=O)N2CCCC2C(N)=O)sc1-c1ccnc(C(C)(C)C(F)(F)F)c1
category label: false (0)
//
compound: C#Cc1c(F)ccc2cc(O)cc(-c3ncc4c(N5CC6CCC(C5)N6)nc(OCC56CCCN5CC(F)C6)nc4c3F)c12 (stereo not drawn) + Cc1nc(NC(=O)N2CCCC2C(N)=O)sc1-c1ccnc(C(C)(C)C(F)(F)F)c1
category label: false (0)

* * *

tested on: 233499-124-R-J3-PDC spheroids with HUVEC/MSC, viability; assay: Anticancer human tumor 233499-124-R-J3-PDC cell line growth inhibition [PI3K]; details: second compound 1 µM; first compound 1 µM; stronger effect = lower value;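 further: spheroids exposed to agents for seven days before readout; percent viability relative to DMSO vehicle control taken as 100%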
Reported viability, T/C by item:
outcome measure: viability, T/C (%)

molecule: CC(Cn1ccc(-c2ccc(C#N)c(Cl)c2)n1)NC(=O)c1cc(C(C)O)[nH]n1 (stereo not drawn) + Cc1nc(NC(=O)N2CCCC2C(N)=O)sc1-c1ccnc(C(C)(C)C(F)(F)F)c1
tgt: 233499-124-R-J3-PDC spheroids with HUVEC/MSC, viability
endpoint result: 50.5

molecule: CC1(C)CCC(Nc2ncc(C(F)(F)F)c(-c3c[nH]c4c(P(C)(C)=O)c(C#N)ccc34)n2)CN1 (stereo not drawn) + CC(Nc1ncnc2nc[nH]c12)c1cc2cccc(Cl)c2c(=O)n1-c1ccccc1
tgt: 233499-124-R-J3-PDC spheroids with HUVEC/MSC, viability
endpoint result: 28.2

molecule: CC(C)NCC(C(=O)N1CCN(c2ncnc3c2C(C)CC3O)CC1)c1ccc(Cl)cc1 (stereo not drawn) + CC(Nc1ccc2c(c1)OCCn1cc(N3C(=O)OCC3C(F)F)nc1-2)C(N)=O
tgt: 233499-124-R-J3-PDC spheroids with HUVEC/MSC, viability
endpoint result: 68.7

molecule: CNC(=O)c1ccc(N2C(=S)N(c3ccc(C#N)c(C(F)(F)F)c3)C(=O)C2(C)C)cc1F + CC(Nc1ncnc2nc[nH]c12)c1cc2cccc(Cl)c2c(=O)n1-c1ccccc1
tgt: 233499-124-R-J3-PDC spheroids with HUVEC/MSC, viability
endpoint result: 77.4

molecule: CCN1CCN(Cc2ccc(Nc3ncc(F)c(-c4cc(F)c5nc(C)n(C(C)C)c5c4)n3)nc2)CC1 + CC(Nc1ncnc2nc[nH]c12)c1cc2cccc(Cl)c2c(=O)n1-c1ccccc1
tgt: 233499-124-R-J3-PDC spheroids with HUVEC/MSC, viability
endpoint result: 50.8

molecule: CC(Cn1ccc(-c2ccc(C#N)c(Cl)c2)n1)NC(=O)c1cc(C(C)O)[nH]n1 (stereo not drawn) + CC(Nc1ncnc2nc[nH]c12)c1cc2cccc(Cl)c2c(=O)n1-c1ccccc1
tgt: 233499-124-R-J3-PDC spheroids with HUVEC/MSC, viability
endpoint result: 110

molecule: Cn1nccc1Nc1nccc(-c2ccn(C(CO)c3ccc(Cl)c(F)c3)c(=O)c2)n1 (stereo not drawn) + CC(Nc1ncnc2nc[nH]c12)c1cc2cccc(Cl)c2c(=O)n1-c1ccccc1
tgt: 233499-124-R-J3-PDC spheroids with HUVEC/MSC, viability
endpoint result: 86.3

molecule: CC1(C)CCC(CN2CCN(c3ccc(C(=O)NS(=O)(=O)c4ccc(NCC5CCOCC5)c([N+](=O)[O-])c4)c(Oc4cnc5[nH]ccc5c4)c3)CC2)=C(c2ccc(Cl)cc2)C1 + CC(Nc1ncnc2nc[nH]c12)c1cc2cccc(Cl)c2c(=O)n1-c1ccccc1
tgt: 233499-124-R-J3-PDC spheroids with HUVEC/MSC, viability
endpoint result: 90.3

* * *

tested on: 233499-124-R-J3-PDC spheroids with HUVEC/MSC, viability; experiment: Anticancer human tumor 233499-124-R-J3-PDC cell line growth inhibition [PI3K]; conditions: second compound 1 µM; first compound 0.1 µM; stronger effect = lower value;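 further: spheroids exposed to agents for seven days before readout; percent viability relative to DMSO vehicle control taken as 100%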
hey, just use condition met if measured viability, T/C is less than 60%, otherwise condition not met

molecule: Cn1ncnc1[C@H]1c2n[nH]c(=O)c3cc(F)cc(c23)N[C@@H]1c1ccc(F)cc1 + Cc1nc(NC(=O)N2CCCC2C(N)=O)sc1-c1ccnc(C(C)(C)C(F)(F)F)c1
tgt: 233499-124-R-J3-PDC spheroids with HUVEC/MSC, viability
category label: condition not met
--
molecule: CC(=O)c1c(C)c2cnc(Nc3ccc(N4CCNCC4)cn3)nc2n(C2CCCC2)c1=O + CC(Nc1ccc2c(c1)OCCn1cc(N3C(=O)OCC3C(F)F)nc1-2)C(N)=O
tgt: 233499-124-R-J3-PDC spheroids with HUVEC/MSC, viability
category label: condition met
--
molecule: CNC(=O)c1ccc(N2C(=S)N(c3ccc(C#N)c(C(F)(F)F)c3)C(=O)C2(C)C)cc1F + CC(Nc1ncnc2nc[nH]c12)c1cc2cccc(Cl)c2c(=O)n1-c1ccccc1
tgt: 233499-124-R-J3-PDC spheroids with HUVEC/MSC, viability
category label: condition not met
--
molecule: CCN1CCN(Cc2ccc(Nc3ncc(F)c(-c4cc(F)c5nc(C)n(C(C)C)c5c4)n3)nc2)CC1 + COc1c(OCCCN2CCOCC2)ccc2c3n(c(=NC(=O)c4cnc(N)nc4)nc12)CCN3
tgt: 233499-124-R-J3-PDC spheroids with HUVEC/MSC, viability
category label: condition met
--
molecule: CC(C)NCC(C(=O)N1CCN(c2ncnc3c2C(C)CC3O)CC1)c1ccc(Cl)cc1 (configuration not stated) + CC(Nc1ncnc2nc[nH]c12)c1cc2cccc(Cl)c2c(=O)n1-c1ccccc1
tgt: 233499-124-R-J3-PDC spheroids with HUVEC/MSC, viability
category label: condition not met
--
molecule: CC(C)n1nc(-c2ccc3oc(N)nc3c2)c2c(N)ncnc21 + CC(Nc1ncnc2nc[nH]c12)c1cc2cccc(Cl)c2c(=O)n1-c1ccccc1
tgt: 233499-124-R-J3-PDC spheroids with HUVEC/MSC, viability
category label: condition met
--
molecule: CC1(C)CCC(CN2CCN(c3ccc(C(=O)NS(=O)(=O)c4ccc(NCC5CCOCC5)c([N+](=O)[O-])c4)c(Oc4cnc5[nH]ccc5c4)c3)CC2)=C(c2ccc(Cl)cc2)C1 + Cc1nc(NC(=O)N2CCCC2C(N)=O)sc1-c1ccnc(C(C)(C)C(F)(F)F)c1
tgt: 233499-124-R-J3-PDC spheroids with HUVEC/MSC, viability
category label: condition not met
--
molecule: C[C@@H](NC(=O)c1ncnc(N)c1Cl)c1ncc(C(=O)Nc2cc(C(F)(F)F)c(Cl)cn2)s1 + COc1c(OCCCN2CCOCC2)ccc2c3n(c(=NC(=O)c4cnc(N)nc4)nc12)CCN3
tgt: 233499-124-R-J3-PDC spheroids with HUVEC/MSC, viability
category label: condition met
--
molecule: C=CC(=O)N1CCN(c2nc(=O)n(-c3c(C)ccnc3C(C)C)c3nc(-c4c(O)cccc4F)c(F)cc23)C(C)C1 (configuration not stated) + Cc1nc(NC(=O)N2CCCC2C(N)=O)sc1-c1ccnc(C(C)(C)C(F)(F)F)c1
tgt: 233499-124-R-J3-PDC spheroids with HUVEC/MSC, viability
category label: condition not met
--
molecule: Cn1nccc1Nc1nccc(-c2ccn(C(CO)c3ccc(Cl)c(F)c3)c(=O)c2)n1 (configuration not stated) + CC(Nc1ncnc2nc[nH]c12)c1cc2cccc(Cl)c2c(=O)n1-c1ccccc1
tgt: 233499-124-R-J3-PDC spheroids with HUVEC/MSC, viability
category label: condition not met
--
molecule: CCN1CCN(Cc2ccc(Nc3ncc(F)c(-c4cc(F)c5nc(C)n(C(C)C)c5c4)n3)nc2)CC1 + Cc1nc(NC(=O)N2CCCC2C(N)=O)sc1-c1ccnc(C(C)(C)C(F)(F)F)c1
tgt: 233499-124-R-J3-PDC spheroids with HUVEC/MSC, viability
category label: condition met
--
molecule: CC1(C)CCC(Nc2ncc(C(F)(F)F)c(-c3c[nH]c4c(P(C)(C)=O)c(C#N)ccc34)n2)CN1 (configuration not stated) + Cc1nc(NC(=O)N2CCCC2C(N)=O)sc1-c1ccnc(C(C)(C)C(F)(F)F)c1
tgt: 233499-124-R-J3-PDC spheroids with HUVEC/MSC, viability
category label: condition met
